# Measurement Target: Proteasome subunit beta (Trypanosoma cruzi) (UniProt O96673)
# Sequence (whole entry): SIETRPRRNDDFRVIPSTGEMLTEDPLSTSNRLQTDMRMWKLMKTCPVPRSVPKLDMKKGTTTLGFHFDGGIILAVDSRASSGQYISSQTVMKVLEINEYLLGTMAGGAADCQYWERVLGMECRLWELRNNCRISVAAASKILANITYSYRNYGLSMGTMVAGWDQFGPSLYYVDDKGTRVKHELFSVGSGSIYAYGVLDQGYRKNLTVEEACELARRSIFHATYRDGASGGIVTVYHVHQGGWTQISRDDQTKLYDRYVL
# Assay Name: Trypanosoma cruzi proteasome chymotrypsin-like activity (TcProtChymo) assay. Also: in the data most compounds retested in dose-response had high values.
# Format: functional
# Design: scale not given: direction of the effect not stated beside the values
# Measurement Setup: 9.37 µM
Measured Property: Percent Effect (%)
Express your answer in %, writing the number without its unit.

Solved entries:
| Compound | Percent Effect [%] |
| --- | --- |
| Cc1ccc(N2CCCC(NCc3ccncc3)C2)nn1 (stereo unspecified) | 26.8 |
| CCc1nc(CN2CCCN(c3ncnc4ccccc34)CC2)no1 | 18.3 |
| COc1ccc2nnc(CCCC(=O)NCCC3=CCCCC3)n2n1 | 12.2 |
| CC(C(=O)Nc1cccc(N2CCCCC2)c1)n1cncn1 (stereo unspecified) | 10.3 |
| CC(=O)N1CCN([C@@H]2CC[C@@H](NC(=O)c3cncc(C)c3)[C@H]2O)CC1 | -3.28 |

Proceeding to the next compound to report its Percent Effect.
Percent Effect measured on Cc1nc(CN2CCOC(CN(C)c3cccnn3)C2)cs1 (stereo unspecified) = 5.74

* * *

We begin with a simple list: items and their reported Percent Effect.
# Measurement Target: Ubiquitin-activating enzyme e1, putative (Leishmania donovani (strain BPK282A1)) (UniProt E9BSI1)
# Sequence (E9BSI1 as listed by the source): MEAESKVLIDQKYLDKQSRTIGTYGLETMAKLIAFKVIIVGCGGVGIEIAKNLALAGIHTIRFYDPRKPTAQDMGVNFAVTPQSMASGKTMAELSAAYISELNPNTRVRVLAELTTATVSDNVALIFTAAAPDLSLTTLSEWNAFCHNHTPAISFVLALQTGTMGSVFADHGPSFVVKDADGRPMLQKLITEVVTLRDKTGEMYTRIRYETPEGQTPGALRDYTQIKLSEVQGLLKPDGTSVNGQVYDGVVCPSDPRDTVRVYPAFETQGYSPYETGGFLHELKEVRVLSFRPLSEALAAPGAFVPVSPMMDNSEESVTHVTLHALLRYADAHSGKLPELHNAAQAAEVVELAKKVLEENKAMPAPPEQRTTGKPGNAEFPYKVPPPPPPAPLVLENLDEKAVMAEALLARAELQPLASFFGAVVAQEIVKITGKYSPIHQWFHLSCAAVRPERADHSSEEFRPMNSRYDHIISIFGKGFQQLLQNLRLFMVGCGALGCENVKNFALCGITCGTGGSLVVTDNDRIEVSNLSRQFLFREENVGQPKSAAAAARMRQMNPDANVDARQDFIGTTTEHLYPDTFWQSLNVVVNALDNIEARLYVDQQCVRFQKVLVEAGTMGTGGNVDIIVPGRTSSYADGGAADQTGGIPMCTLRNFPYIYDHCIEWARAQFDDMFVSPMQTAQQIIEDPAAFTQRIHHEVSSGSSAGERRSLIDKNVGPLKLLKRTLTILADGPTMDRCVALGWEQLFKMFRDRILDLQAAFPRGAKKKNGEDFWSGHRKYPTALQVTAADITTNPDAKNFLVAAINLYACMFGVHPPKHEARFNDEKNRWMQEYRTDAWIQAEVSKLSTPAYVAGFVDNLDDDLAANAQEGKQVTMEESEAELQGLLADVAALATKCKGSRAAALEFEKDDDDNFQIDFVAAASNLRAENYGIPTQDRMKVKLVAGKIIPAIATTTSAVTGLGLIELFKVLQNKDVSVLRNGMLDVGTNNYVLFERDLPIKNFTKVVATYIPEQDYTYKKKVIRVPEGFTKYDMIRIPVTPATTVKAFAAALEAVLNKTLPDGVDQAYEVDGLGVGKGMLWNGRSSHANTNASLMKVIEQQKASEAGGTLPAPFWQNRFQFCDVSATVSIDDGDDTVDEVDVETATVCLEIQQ
# Assay Name: Leishmania donovani Ubiquitin Activating Enzyme (LdE1)
# Type: functional
# Design: scale not given: direction of the effect not stated beside the values
# Measurement Setup: 30 µM
Results with a measured potency or affinity are listed apart.
Express your answer in %, writing the number without its unit.

Solved entries:
| Compound | Measured Property | Meas Value |
| --- | --- | --- |
| CC(=O)Nc1ncc(S(=O)(=O)Nc2ccc(F)cc2F)s1 | Percent Effect | 9.33 |
| CCC(CC)NC(=O)Cn1nc(C)nc1-c1ccccc1 | Percent Effect | 16.2 |
| Cc1noc(C2CCCN(C(=O)c3ccc(Br)o3)C2)n1 (stereo not given) | Percent Effect | 13 |
| CCOCCC(=O)N1CCCN(Cc2csc(CC)n2)CC1 | Percent Effect | 3.8 |

Proceeding to the next compound to report its Percent Effect.
Percent Effect measured on O=C(Nc1cc(F)ccc1OCC1CCCO1)c1ccc(O)nc1 (stereo not given) = 7.79

* * *

# Test system: Trypanosoma cruzi
# Assay Name: Trypanosoma cruzi phosphomannomutase and mannose-1-phosphate guanylyltransferase assay
# Type: functional
# Set-up: scale not given: direction of the effect not stated beside the values
# Measurement Setup: 10 µM
Measured Property: Percent Effect (%)
Express your answer in %, writing the number without its unit.

| Compound | Measurement Target | Percent Effect / % |
| --- | --- | --- |
| Cc1nc(C)n(CC2CCCN2CC(=O)Nc2cc(C(C)C)no2)n1 (stereo not drawn) | Trypanosoma cruzi | 1.03 |

COCCN1CCC2(CCCN(C(=O)c3cnoc3C)C2)C1=O (stereo not drawn) on Trypanosoma cruzi gives Percent Effect = -6.55

CCn1cc(NC(=O)NCC(c2cccs2)N(C)C)cn1 (stereo not drawn) on Trypanosoma cruzi gives Percent Effect = -3.76

CC(O)CN1CCN(C(=O)c2ccc3c(c2)COC3)CC1 (stereo not drawn) on Trypanosoma cruzi gives Percent Effect = 6.14

`CN(C)[C@@H]1CCN(c2ncccn2)[C@H]1Cc1ccncc1` on Trypanosoma cruzi gives Percent Effect = 5.01

Cc1noc(C)c1CN1CC2(CCN(C(=O)c3c[nH]cn3)C2)CC1=O (stereo not drawn) on Trypanosoma cruzi gives Percent Effect = -3.48

`O=C(NC[C@H]1OC[C@@H]2CCN(C(=O)c3ccco3)C[C@@H]21)C1CC1` on Trypanosoma cruzi gives Percent Effect = -3.81

COCC(=O)NCc1cc(=O)n2c(n1)CN(CC1CCOC1)CCC2 (stereo not drawn) on Trypanosoma cruzi gives Percent Effect = 0.0978

`Cn1c(C(=O)N2CCC(C(=O)N3CCCC3)CC2)c(Cl)c2ccccc21` on Trypanosoma cruzi gives Percent Effect = 2.82
